The values you see were collected from PubChem BioAssay AID1159580.

- measurement_protocol: chemical genetic growth profiling, strain panel (AID 1159580);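 also: tested at 20 µM; growth read once vehicle control cultures reached saturation at 30 °C; 1 = growth at the plate median or of vehicle wells; lower values mean less growth of the strain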
- condition_summary: S. cerevisiae deletion strains, growth OD, locus YPR119W, strain clb2, active compounds read low
About 2,000 (36%) of roughly 5,500 compounds were called active. Roughly 18% stayed inconclusive and do not appear here. This is one part of the list.
measurement_label: normalized growth
No unit in the answer, please; the number alone is enough.

Recorded normalized growth, per entry:
CO[C@]12C[C@@H](COC(=O)c3cncc(Br)c3)CN(C)[C@@H]1Cc1cn(C)c3cccc2c13    1.01
O=C(O)CCCOc1ccc(Cl)cc1Cl    1.01

For C[C@]12C=CC(=O)C=C1CCC1C3C[C@@H](O)[C@](O)(C(=O)CO)[C@@]3(C)C[C@H](O)[C@@]12F (stereo not given in full) the molecule record lists normalized growth as 0.99

For `CN(C)C(=O)Nc1ccc(Cl)c(Cl)c1` the molecule record lists normalized growth as 0.996

For NS(=O)(=O)c1cc2c(cc1Cl)NC(C1CC3C=CC1C3)NS2(=O)=O (stereo not given) the molecule record lists normalized growth as 0.996

For `COc1c(Cl)ccc(Cl)c1C(=O)O` the molecule record lists normalized growth as 1.01

For `CNCCCN1c2ccccc2CCc2ccccc21` the molecule record lists normalized growth as 1

For `Cc1cc(=O)oc2c(O)c(O)ccc12` the molecule record lists normalized growth as 0.985

For `CCCC(C(=O)OCCN(CC)CC)(c1ccccc1)c1ccccc1` the molecule record lists normalized growth as 0.996

For `Cc1nc2ccccn2c(=O)c1CCN1CCC(C(=O)c2ccc(F)cc2)CC1` the molecule record lists normalized growth as 1

For Cc1cc(O)c(C=O)c2c1C(=O)Oc1c(C)c(O)c3c(c1O2)C(O)OC3=O (stereo not given) the molecule record lists normalized growth as 0.979

For OC1=Cc2c(O)cc(O)cc2OC1(O)c1ccc(O)c(O)c1 (stereo not given) the molecule record lists normalized growth as 0.995
